Tested on: D-3-phosphoglycerate dehydrogenase (Homo sapiens)
Assay details: PHGDH SPR Assay
Settings: pH 7.4
Reported property: Kd (nM)

INSERT INTO measurements (mol_smiles, reported_property, output_unit, recorded_number) VALUES
  ('O=C(N/N=C/c1cc([N+](=O)[O-])ccc1O)c1ccc(O)cc1O', 'Kd', 'nM', 560);

====

Protein target, amino acids: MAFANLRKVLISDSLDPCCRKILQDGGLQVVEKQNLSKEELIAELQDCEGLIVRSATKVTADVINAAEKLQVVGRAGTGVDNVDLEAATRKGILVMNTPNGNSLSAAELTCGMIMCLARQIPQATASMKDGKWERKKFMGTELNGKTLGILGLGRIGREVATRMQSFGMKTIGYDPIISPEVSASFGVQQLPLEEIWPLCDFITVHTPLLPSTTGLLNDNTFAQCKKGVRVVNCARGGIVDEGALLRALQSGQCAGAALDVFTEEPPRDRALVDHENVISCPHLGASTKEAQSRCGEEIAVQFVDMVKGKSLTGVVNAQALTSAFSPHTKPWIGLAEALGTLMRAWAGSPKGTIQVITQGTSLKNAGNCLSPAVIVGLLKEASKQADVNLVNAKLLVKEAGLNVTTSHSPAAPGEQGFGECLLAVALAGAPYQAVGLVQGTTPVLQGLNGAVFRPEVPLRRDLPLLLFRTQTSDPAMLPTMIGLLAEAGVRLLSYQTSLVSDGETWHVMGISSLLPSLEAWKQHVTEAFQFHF
pIC50: −log10 of the molar value.
Reported property: pIC50

INSERT INTO assay_data (compound, reported_property, recorded_number) VALUES
  ('O=C(N/N=C/c1cc([N+](=O)[O-])ccc1O)c1ccc(O)cc1O [PKUMDL-WQ-2101]', 'pIC50', 4.35);
